Listed here: items and their measured IC50.
biological target: human c-MER catalytic domain (Homo sapiens (Human), UniProt Q12866); test: LanthaScreen TR-FRET kinase assay, c-MER; settings: read-out: Mer TK inhibition (IC50); Biochemical IC50, TR-FRET, 10 uM ATP
Sequence (Q12866 587-858): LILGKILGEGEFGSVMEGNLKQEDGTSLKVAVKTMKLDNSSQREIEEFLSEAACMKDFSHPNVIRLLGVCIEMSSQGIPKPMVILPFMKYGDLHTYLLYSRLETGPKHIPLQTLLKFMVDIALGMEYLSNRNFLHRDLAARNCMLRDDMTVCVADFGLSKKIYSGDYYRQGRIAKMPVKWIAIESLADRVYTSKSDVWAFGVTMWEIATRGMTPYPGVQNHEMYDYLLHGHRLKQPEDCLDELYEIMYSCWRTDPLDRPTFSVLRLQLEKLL

>>> reported_result("CCc1cc(CO[C@H]2CN(C)C[C@@H]2NC(=O)c2cc(-c3cnn(C4CCN(C)CC4)c3)cnc2N)ccc1C")
"< 0.01 µM"

Exercise: What measured IC50 goes with `CN(C)CCCOc1ccc(-c2ccc(CO[C@H]3CCC[C@@H]3NC(=O)c3cc(-c4cnn(C)c4)cnc3N)cc2)cc1` ?
Solution: < 0.01 µM

Exercise: Recorded IC50 for CC(c1c(F)cc(-c2ccc(CO[C@H]3CCC[C@@H]3NC(=O)c3cc(-c4cnn(C)c4)cnc3N)cc2)cc1F)N1CCN(CCO)CC1 (some centres unmarked) , please?
Solution: < 0.01 µM

Exercise: Suppose we examine the compound `Cn1cc(-c2cnc(N)c(C(=O)N[C@H]3CCC[C@@H]3OCc3ccc(-c4ccc(CN5CCC(N6CCCC6)CC5)cc4)cc3)c2)cn1` ; what IC50 value has been reported?
Solution: < 0.01 µM

Exercise: So what does the record say about IC50 for `Cn1cc(-c2cnc(N)c(C(=O)N[C@H]3CCC[C@@H]3OCc3ccc(-c4cccc(CN)c4)cc3)c2)cn1` ?
Solution: > 1 µM

Exercise: Please look up its IC50: `C[C@@H]1CN(Cc2ccc(-c3ccc(CO[C@H]4CCC[C@@H]4NC(=O)c4cc(-c5cnn(C)c5)cnc4N)cc3)cc2)CCN1C`
Solution: < 0.01 µM

Exercise: Dear colleague, I am looking for the recorded IC50 of the following compound: `C[C@@H](COCc1ccccc1)NC(=O)c1cc(-c2cnn(C)c2)cnc1N`
Solution: > 1 µM

Exercise: Reported IC50 for CC(c1ccc(-c2ccc(CO[C@H]3CCC[C@@H]3NC(=O)c3cc(-c4cnn(C)c4)cnc3N)cc2)cc1)N1CCN(C)CC1 (some centres unmarked) : what is it?
Solution: < 0.01 µM
